assayedSystem: FimT Lp (Legionella pneumophila, UniProt Q5ZVL2 38-162)
method: ITC; 50 mM Tris-HCl pH 7.2, 50 mM NaCl; […]; ITC 30 C; MST 50-150 mM NaCl, 0.05% Tween-20, […]
conditionParameters: protein: recombinant; tags: His6-SUMO cleaved; blunt
observable: Kd (nM)
Only the number, expressed in nM, is required.

Prompt: Consider the binder 12mer dsDNA (dsDNA) DNA 1: GTTCGCAACGAA DNA 2: TTCGTTGCGAAC . State its measured Kd.
Completion: 2800
